- Tested on: NCI-H226
- Assay Explanation: Antitumor activity against human NCI-H226 cells
- Type: functional

| Molecule | GI50 |
| --- | --- |
| OC[C@H]1C[C@](O)(c2ccc(F)cc2)[C@@H](c2ccc(F)cc2)O1 (relative stereo) | > 100 µM |
| COc1ccc([C@H]2O[C@@H](CO)C[C@]2(O)c2ccc(OC)cc2)cc1 (relative stereo) | > 100 µM |
| CS(=O)(=O)c1ccc([C@H]2O[C@@H](CO)C[C@]2(O)c2ccc(S(C)(=O)=O)cc2)cc1 (relative stereo) | > 100 µM |

###

- Test system: SNB-19
- Assay Explanation: Antitumor activity against human SNB19 cells
- Assay type: functional

| Compound | GI50 |
| --- | --- |
| OC[C@H]1C[C@](O)(c2ccc(F)cc2)[C@@H](c2ccc(F)cc2)O1 (relative stereo) | > 100 µM |
| CS(=O)(=O)c1ccc([C@H]2O[C@@H](CO)C[C@]2(O)c2ccc(S(C)(=O)=O)cc2)cc1 (relative stereo) | > 100 µM |
| COc1ccc([C@H]2O[C@@H](CO)C[C@]2(O)c2ccc(OC)cc2)cc1 (relative stereo) | > 100 µM |

FYI, the data here is from ChEMBL document CHEMBL1143055.
